The reported numbers originate from patent US5916566A.

Reported % inhibition (0.001%) is given for each of the following molecules.
- Test system: rat cytochrome P4503A
- conditions: oil ingredient at 0.001 wt % (Table 2)

- molecule: "CC(=O)OC/C=C(\\C)CCC=C(C)C [Geranyl Acetate]"
  output-unit: "%"
  % inhibition (0.001%): 51.5
- molecule: "CC1=CCC2C(C1)C2(C)C (stereo not drawn)"
  output-unit: "%"
  % inhibition (0.001%): 34
- molecule: "C=CC(=C)CCC=C(C)C"
  output-unit: "%"
  % inhibition (0.001%): 13
- molecule: "COC(=O)c1ccccc1N [Methyl Anthranilate, Methyl 2-aminobenzoate]"
  output-unit: "%"
  % inhibition (0.001%): 23
- molecule: "CC12CCC(CC1)C(C)(C)O2"
  output-unit: "%"
  % inhibition (0.001%): 64
- molecule: "COc1cc(CNC(=O)CCCC/C=C/C(C)C)ccc1O [Capsaicin, trans-8-Methyl-N-vanillyl-6 nonenamide]"
  output-unit: "%"
  % inhibition (0.001%): 68
- molecule: "C=C(C)[C@@H]1CC=C(C)CC1 [Limonene-(S)-(-), p-Mentha-1,8-diene]"
  output-unit: "%"
  % inhibition (0.001%): 30
- molecule: "CC1=CCC(C(C)(C)O)CC1 (stereo not drawn)"
  output-unit: "%"
  % inhibition (0.001%): 86
- molecule: "CC1=CCC(O)(C(C)C)CC1 (stereo not drawn)"
  output-unit: "%"
  % inhibition (0.001%): 80

----------
- Tested on: rat cytochrome P4503A
- conditions: oil ingredient at 0.01 wt % (Table 2)
recorded-metric: % inhibition (0.01%)

- compound: "Cc1ccc(C(C)C)cc1O"
  assay-target: "rat cytochrome P4503A"
  measured-value: 97
- compound: "C=C(C)[C@@H]1CC=C(C)CC1 [Limonene-(S)-(-), p-Mentha-1,8-diene]"
  assay-target: "rat cytochrome P4503A"
  measured-value: 82.3
- compound: "O=C/C=C/c1ccccc1 [Cinnamic Aldehyde, trans-, 3-Phenylpropenaldehyde]"
  assay-target: "rat cytochrome P4503A"
  measured-value: 78
- compound: "COC(=O)c1ccccc1O [Methyl Salicylate, Methyl-2-hydroxybenzoate]"
  assay-target: "rat cytochrome P4503A"
  measured-value: 86
- compound: "CC1=CCC(O)(C(C)C)CC1 (stereo not drawn)"
  assay-target: "rat cytochrome P4503A"
  measured-value: 100
- compound: "CC(C)=CCCC(C)CCO (stereo not drawn)"
  assay-target: "rat cytochrome P4503A"
  measured-value: 95
- compound: "C/C=C/c1ccc(OC)cc1 [Anethole, trans-, 4-Propenylanisole]"
  assay-target: "rat cytochrome P4503A"
  measured-value: 100
- compound: "CC12CCC(CC1=O)C2(C)C (racemic) [Camphor-(±)]"
  assay-target: "rat cytochrome P4503A"
  measured-value: 87
- compound: "CC1=CCC(C(C)(C)O)CC1 (stereo not drawn)"
  assay-target: "rat cytochrome P4503A"
  measured-value: 100
- compound: "C=CCc1ccc(OC)cc1"
  assay-target: "rat cytochrome P4503A"
  measured-value: 100
- compound: "C=CCc1ccc(O)c(OC)c1"
  assay-target: "rat cytochrome P4503A"
  measured-value: 100
- compound: "Cc1ccc(C(C)C)c(O)c1"
  assay-target: "rat cytochrome P4503A"
  measured-value: 100
- compound: "CC(C)=CCC/C(C)=C/C=O"
  assay-target: "rat cytochrome P4503A"
  measured-value: 99
- compound: "CC12CCC(CC1)C(C)(C)O2"
  assay-target: "rat cytochrome P4503A"
  measured-value: 88
- compound: "CC(=O)OC/C=C(\\C)CCC=C(C)C [Geranyl Acetate]"
  assay-target: "rat cytochrome P4503A"
  measured-value: 73
- compound: "C=CC(C)(O)CCC=C(C)C (racemic) [Linalcol-(±), 3,7-Dimethyl-1,6-octadien-3-ol]"
  assay-target: "rat cytochrome P4503A"
  measured-value: 85
- compound: "C=C(C)[C@@H]1CC=C(C)C(=O)C1 [Carvone-(R)-(-), p-Mentha-6,8-dien-2-one]"
  assay-target: "rat cytochrome P4503A"
  measured-value: 100
- compound: "CC1(C)[C@H]2CC[C@]1(C)[C@H](O)C2 [Borneol-(IS)-endo(-), 1,7,7-Trimethylbicyclo[2.2.1]heptan-2-ol]"
  assay-target: "rat cytochrome P4503A"
  measured-value: 100
- compound: "C=CC(C)(CCC=C(C)C)OC(C)=O (stereo not drawn) [Linalyl Acetate, 3,7-Dimethyl-1,6-octadien-3-yl acetate]"
  assay-target: "rat cytochrome P4503A"
  measured-value: 100
- compound: "CCOc1cc(C=O)ccc1O [Ethyl Vanillin, 3-Ethoxy-4-hydroxybenzoledhyde]"
  assay-target: "rat cytochrome P4503A"
  measured-value: 58
- compound: "C=C1CC[C@H]2C[C@@H]1C2(C)C [Pinene-(IS)-(-)-β]"
  assay-target: "rat cytochrome P4503A"
  measured-value: 88
